Tgt: AR in stickleback kidney cytosolic fraction
Test Details: Saturation and Scatchard analysis, kidney cytosolic fraction
Cond: overnight 4°C
Readout Kind: pKd
Worth noting: pKd values are minus log10 of concentrations stated in mol/L.

So for C[C@]12CCC(=O)C[C@@H]1CC[C@@H]1[C@@H]2CC[C@]2(C)[C@@H](O)CC[C@@H]12 [[^3H]-DHT] , the logged pKd turned out to be 7.73
